Provenance of the data: patent US20210318322A1

Target: T1, human VISTA expressed on cells (human, UniProt Q9H7M9 33-295)
T1 sequence: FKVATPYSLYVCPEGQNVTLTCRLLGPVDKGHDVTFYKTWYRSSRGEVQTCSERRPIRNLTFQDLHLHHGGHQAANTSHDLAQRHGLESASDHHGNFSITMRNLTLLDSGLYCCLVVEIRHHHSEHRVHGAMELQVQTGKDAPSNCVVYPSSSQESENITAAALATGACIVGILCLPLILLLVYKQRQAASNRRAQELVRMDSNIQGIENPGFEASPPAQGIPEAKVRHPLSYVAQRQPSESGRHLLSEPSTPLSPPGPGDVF
Test: cell-based or functional assay
Give measured IC50, CPM in the MLR for each item. Keep answers brief.

Lookup: Which IC50, CPM in the MLR reading was recorded for the binder VSTB60 (antibody, human IgG1, kappa, V domains shown, also called S47; INX Code 47) VH: QVQLVQSGSELKKPGASVKVSCKASGYTFTNYGMTWVRQAPGQGLEWMGWINTYTGESTYADDFKGRFVFSLDTSVSTAYLQICSLKAEDTAVYYCARDYYGIYVSAYWGQGTLVTVSS VL: DIVMTQTPLSLSVTPGQPASISCRASESVDNYANSFMHWYLQKPGQSPQLLIYRASNLESGVPDRFSGSGSGTDFTLKISRVEAEDVGVYYCQQSHEDPYTFGQGTKLEIKR ?
Found: 0.02 log10 of antibody concentration

Lookup: Which IC50, CPM in the MLR reading was recorded for the binder VSTB53 (antibody, human IgG1, kappa, V domains shown, also called S43; INX Code 43) VH: QVQLVQSGAEVKKPGASVKVSCKASGYTFTHYTIHWVRQAPGQGLEWMGYIIPSSGYSEYNQKFKDRVTMTRDTSTSTVYMELSSLRSEDTAVYYCARGAYDDYYDYYAMDYWGQGTLVTVSS VL: DIVMTQSPLSLPVTPGEPASISCRSSQTIVHSNGNTYLEWYLQKPGQSPQLLIYKVSNRFSGVPDRFSGSGSGTDFTLKISRVEAEDVGVYYCFQASHVPWTFGQGTKLEIKR ?
Found: -0.33 log10 of antibody concentration

Lookup: Which IC50, CPM in the MLR reading was recorded for the binder VSTB95 (antibody, human IgG1, kappa, V domains shown, also called S16; INX Code 16) VH: EVQLVESGGGLVQPGGSLRLSCAASGFTFRNYGMSWVRQAPGKGLEWVASIISGGSYTYYPDSVKGRFTISRDNAKNSLYLQMNSLRAEDTAVYYCARIYDHDGDYYAMDYWGQGTTVTVSS VL: DIVMTQSPLSLPVTPGEPASISCRSSQSIVHSNGNTYLEWYLQKPGQSPQLLIYKVSNRFSGVPDRFSGSGSGTDFTLKISRVEAEDVGVYYCFQGSHVPWTFGQGTKLEIKR ?
Found: -0.54 log10 of antibody concentration

Lookup: Which IC50, CPM in the MLR reading was recorded for the binder VSTB50 (antibody, human IgG1, kappa, V domains shown, also called S41; INX Code 41) VH: QVQLVQSGSELKKPGASVKVSCKASGYTFTNYGLNWVRQAPGQGLEWMGWINPYTGEPTYADDFKGRFVFSLDTSVSTAYLQICSLKAEDTAVYYCAREGYGNYIFPYWGQGTLVTVSS VL: DIVMTQTPLSLSVTPGQPASISCRASESVDTYANSLMHWYLQKPGQPPQLLIYRASNLESGVPDRFSGSGSGTDFTLKISRVEAEDVGVYYCQQTNEDPRTFGQGTKLEIKR ?
Found: -0.12 log10 of antibody concentration
